System: L929sAhFas cells
Assay: High-content imaging of cell growth, nuclear area and nuclear roundness (cytokinesis defects)
Type: cell-based, murine
Conditions: Mus musculus, 48 h, read-out: Nuclear roundness IC50, compound treatment 48 h; Probit analysis
endpoint: IC50 (µM)
Write the value in µM as a bare number.

Req: Fill in: IC50 on L929sAhFas cells, entry Cc1cc(Nc2cc(N3CCN(C)CC3)nc(Sc3ccc(NC(=O)C4CC4)cc3)n2)[nH]n1
Resp: 1.64

----------
Tested on: L929sAhFas cells
Test: mTNF-induced RIPK1-dependent necroptosis
Assay type: cell-based, murine
Conditions: read-out: Necroptosis IC50; Aurora inhibitor panel; dose-response 10-0.0022 µM; pre-treated 1 h, mTNF 20 ng/mL 5 h; nonlinear regression
endpoint: pIC50
Scale for pIC50: -log10 of concentration given in mol/L; no unit attached.

Req: Give the reported pIC50 for this compound. O=C(Nc1cccc(Cl)c1)Nc1ncc(CCNc2ncnc3ccsc23)s1 [SNS-314]
Resp: 6.40

----------
System: L929sAhFas cells
Test: Clonogenic assay (colony-forming capacity)
Type: cell-based, murine
Conditions: Mus musculus, 24 h, read-out: Clonogenicity IC50
endpoint: IC50 (nM)
State just the number; it will be interpreted in nM.

Req: For the compound Cc1cc(Nc2cc(N3CCN(C)CC3)nc(Sc3ccc(NC(=O)C4CC4)cc3)n2)[nH]n1 [Tozasertib] , give its measured IC50 value.
Resp: 122

----------
System: L929sAhFas cells
Experiment: mTNF-induced RIPK1-dependent necroptosis
Assay type: cell-based, murine
Conditions: Mus musculus, L929, read-out: IC50 L929 TNF-induced necroptosis as given in the Discussion, condition not specified
endpoint: IC50 (nM)
Give a bare numeral; the unit nM is implied.

Req: Identify IC50 associated with the molecule Cc1cc(Nc2cc(N3CCN(C)CC3)nc(Sc3ccc(NC(=O)C4CC4)cc3)n2)[nH]n1 [Tozasertib]
Resp: 700
